Taken from patent US20240390340A1.

Each entry below carries its reported pIC50.
Target: KRAS G12D (Homo sapiens, UniProt P01116, G12D)
Sequence (P01116 1-188 isoform P01116-2 G12D): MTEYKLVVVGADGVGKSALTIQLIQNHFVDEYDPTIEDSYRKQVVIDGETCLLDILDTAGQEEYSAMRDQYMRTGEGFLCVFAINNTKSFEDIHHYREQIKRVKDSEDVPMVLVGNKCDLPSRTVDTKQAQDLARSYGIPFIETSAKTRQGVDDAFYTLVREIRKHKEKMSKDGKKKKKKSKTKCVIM
Assay: GDP-GTP exchange assay (bodipy-GDP/GppNHp, SOS1), KRAS G12D
Type: biochemical
Conditions: Table H, column G12D; for compounds isolated as several atropisomers/diastereoisomers the value for the most potent isomer is quoted; read-out: KRAS G12D exchange assay IC50
pIC50: −log10 of the molar value.

Data request, read-out pIC50, for COc1ncccc1O[C@H]1C[C@H](c2cc3c(C)nc4c(F)c(-c5cccc(Cl)c5Cl)c(CCC#N)cc4c3n2[C@H]2[C@H]3CN[C@@H]2C3)N(C(=O)C2CC2)C1 [Example 1]
≥ 7.00

Data request, read-out pIC50, for Cc1nc2c(F)c(-c3cccc(Cl)c3Cl)c(CCC#N)cc2c2c1cc([C@H]1C[C@H](OCc3ccnn3C(F)F)CN1C(=O)C1CC1)n2[C@H]1[C@H]2CN[C@@H]1C2 [Example 8]
≥ 7.00

Data request, read-out pIC50, for Cc1nc2c(F)c(-c3cccc(Cl)c3Cl)c(CCC#N)cc2c2c1cc([C@H]1C[C@H](Oc3ccccn3)CN1C(=O)C1CC1)n2[C@H]1[C@H]2CN[C@@H]1C2 [Example 5]
≥ 7.00

* * *

Biological target: KRAS G12V (Homo sapiens, UniProt P01116, G12V)
Sequence (P01116 1-188 isoform P01116-2 G12V): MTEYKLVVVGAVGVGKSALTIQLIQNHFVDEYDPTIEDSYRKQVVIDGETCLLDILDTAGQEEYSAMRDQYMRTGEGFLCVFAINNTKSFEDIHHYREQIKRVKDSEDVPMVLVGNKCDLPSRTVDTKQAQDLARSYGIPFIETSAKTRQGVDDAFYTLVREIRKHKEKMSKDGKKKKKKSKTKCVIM
Experiment: GDP-GTP exchange assay (bodipy-GDP/GppNHp, SOS1), KRAS G12V
Format: biochemical
Conditions: KRAS G12V mutant; value for the most potent isomer quoted for certain compounds; read-out: G12V (KRAS G12V exchange assay IC50)
pIC50: −log10 of the molar value.
Each entry below carries its reported pIC50.

Known pIC50 results, listed for orientation:
Cc1nc2c(F)c(-c3cccc(Cl)c3Cl)c(CCC#N)cc2c2c1cc([C@H]1C[C@H](OCc3nccs3)C(C)(C)N1C(=O)C1CC1)n2[C@H]1[C@H]2CN[C@@H]1C2 [Example 405]	≥ 7.00
Cc1nc2c(F)c(-c3cccc(Cl)c3Cl)c(CCC#N)cc2c2c1cc([C@H]1C[C@H](c3ccccc3)CN1C(=O)C1CC1)n2[C@H]1[C@H]2CN[C@@H]1C2 [Example 109]	≥ 7.00

Data request, read-out pIC50, for Cc1nc2c(F)c(-c3cccc(Cl)c3Cl)c(CCC#N)cc2c2c1cc([C@H]1C[C@](C)(OCc3ccccc3)CN1C(=O)C1CC1)n2[C@H]1[C@H]2CN[C@@H]1C2 [Example 81]
≥ 7.00

* * *

Target: KRAS G12V (Homo sapiens, UniProt P01116, G12V)
Assay: GDP-GTP exchange assay (bodipy-GDP/GppNHp, SOS1), KRAS G12V
Type: biochemical
Details: KRAS G12V mutant; value for the most potent isomer quoted for certain compounds; read-out: G12V (KRAS G12V exchange assay IC50)
measured-quantity: IC50

Known IC50 results, listed for orientation:
Cc1nc2c(F)c(-c3cccc(Cl)c3Cl)c(CCC#N)cc2c2c1cc([C@H]1C[C@H](Oc3ncco3)CN1C(=O)C1CC1)n2[C@H]1[C@H]2CN[C@@H]1C2	5000 to 10000 nM
Cc1nc2c(F)c(-c3cccc(Cl)c3Cl)c(CCC#N)cc2c2c1cc([C@H]1C[C@H](n3cc(C(C)N4CCOC4=O)nn3)CN1C(=O)C1CC1)n2[C@H]1[C@H]2CN[C@@H]1C2 (some centres unmarked)	≤ 100 nM
Cc1nc2c(F)c(-c3cccc(Cl)c3Cl)c(CCC#N)cc2c2c1cc([C@H]1C[C@H](OCc3ccc(C#N)cc3)CN1C(=O)C1CC1)n2[C@H]1[C@H]2CN[C@@H]1C2	≤ 100 nM

Data request, read-out IC50, for "[2H]C([2H])(O[C@H]1C[C@H](c2cc3c(C)nc4c(F)c(-c5cccc(Cl)c5Cl)c(CCC#N)cc4c3n2[C@H]2[C@H]3CN[C@@H]2C3)N(C(=O)C2CC2)C1)c1nccs1"
≤ 100 nM

Data request, read-out IC50, for "COCC1(c2cn([C@H]3C[C@H](c4cc5c(C)nc6c(F)c(-c7cccc(Cl)c7Cl)c(CCC#N)cc6c5n4[C@H]4[C@H]5CN[C@@H]4C5)N(C(=O)C4CC4)C3)nn2)CC1"
≤ 100 nM

* * *

Target: KRAS G12D (Homo sapiens, UniProt P01116, G12D)
Experiment: GDP-GTP exchange assay (bodipy-GDP/GppNHp, SOS1), KRAS G12D
Format: biochemical
Settings: Table H, column G12D; for compounds isolated as several atropisomers/diastereoisomers the value for the most potent isomer is quoted; read-out: KRAS G12D exchange assay IC50
measured-quantity: IC50

Known IC50 results, listed for orientation:
Cc1nc2c(F)c(-c3cccc(Cl)c3Cl)c(CCC#N)cc2c2c1cc([C@H]1C[C@H](OCc3ccccc3C(F)F)CN1C(=O)C1CC1)n2[C@H]1[C@H]2CN[C@@H]1C2 [Example 18]	≤ 100 nM
Cc1nc2c(F)c(-c3cccc(Cl)c3Cl)c(CCC#N)cc2c2c1cc([C@H]1C[C@H](OCc3ccc(F)cc3C#N)CN1C(=O)C1CC1)n2[C@H]1[C@H]2CN[C@@H]1C2 [Example 17]	≤ 100 nM

Now for the compound whose IC50 we want.
Reported IC50 for KRAS G12D (Homo sapiens, UniProt P01116, G12D), given Cc1nc2c(F)c(-c3cccc(Cl)c3Cl)c(CCC#N)cc2c2c1cc([C@H]1C[C@H](OCc3cnsn3)CN1C(=O)C1CC1)n2[C@H]1[C@H]2CN[C@@H]1C2 [Example 13] ?
≤ 100 nM

* * *

Biological target: KRAS G12D (Homo sapiens, UniProt P01116, G12D)
Experiment: GDP-GTP exchange assay (bodipy-GDP/GppNHp, SOS1), KRAS G12D
Assay type: biochemical
Settings: bodipy-loaded KRAS G12D 2.5 nM, 4 h pre-incubation; value for the most potent isomer quoted for certain compounds; read-out: G12D (KRAS G12D exchange assay IC50)
measured-quantity: IC50

Cc1nc2c(F)c(-c3cccc(Cl)c3Cl)c(CCC#N)cc2c2c1cc([C@H]1C[C@H](OCc3c(F)cccc3F)CN1C(=O)C1CC1)n2[C@H]1[C@H]2CN[C@@H]1C2	≤ 100 nM
Cc1ccc(O[C@H]2C[C@H](c3cc4c(C)nc5c(F)c(-c6cccc(Cl)c6Cl)c(CCC#N)cc5c4n3[C@H]3[C@H]4CN[C@@H]3C4)N(C(=O)C3CC3)C2)cc1	≤ 100 nM

Now for the compound whose IC50 we want.
Reported IC50 for KRAS G12D (Homo sapiens, UniProt P01116, G12D), given "Cc1nc2c(F)c(-c3cccc(Cl)c3Cl)c(CCC#N)cc2c2c1cc([C@H]1C[C@H](n3nnc(-c4cccc(OC(F)(F)F)c4)n3)CN1C(=O)C1CC1)n2[C@H]1[C@H]2CN[C@@H]1C2" ?
≤ 100 nM

* * *

Target: KRAS G12V (Homo sapiens, UniProt P01116, G12V)
Assay: GDP-GTP exchange assay (bodipy-GDP/GppNHp, SOS1), KRAS G12V
Format: biochemical
Details: KRAS G12V mutant; value for the most potent isomer quoted for certain compounds; read-out: G12V (KRAS G12V exchange assay IC50)
pIC50: −log10 of the molar value.
measured-quantity: pIC50

CCn1cc(CO[C@H]2C[C@H](c3cc4c(C)nc5c(F)c(-c6cccc(Cl)c6Cl)c(CCC#N)cc5c4n3[C@H]3[C@H]4CN[C@@H]3C4)N(C(=O)C3CC3)C2)nn1	≥ 7.00
CC(C)(O)c1ccc(-c2nc3c(F)c(-c4cccc(Cl)c4Cl)c(CCC#N)cc3c3c2cc([C@H]2C[C@H](OCc4c(F)cccc4F)CN2C(=O)C2CC2)n3[C@H]2[C@H]3CN[C@@H]2C3)cn1	≥ 7.00
COc1cccc(CO[C@H]2C[C@H](c3cc4c(C)nc5c(F)c(-c6cccc(Cl)c6Cl)c(CCC#N)cc5c4n3[C@H]3[C@H]4CN[C@@H]3C4)N(C(=O)C3CC3)C2)c1F	≥ 7.00
COc1cccc(O[C@H]2C[C@H](c3cc4c(C)nc5c(F)c(-c6cccc(Cl)c6Cl)c(CCC#N)cc5c4n3[C@H]3C4CNC3C4)N(C(=O)C3CC3)C2)n1 (some centres unmarked)	≥ 7.00

Now for the compound whose pIC50 we want.
Data request, read-out pIC50, for Cc1nc2c(F)c(-c3cccc(Cl)c3Cl)c(CCC#N)cc2c2c1cc([C@H]1C[C@H](n3cc(C4CNC(=O)C4)nn3)CN1C(=O)C1CC1)n2[C@H]1[C@H]2CN[C@@H]1C2 (some centres unmarked)
≥ 7.00

* * *

Target: KRAS G12D (Homo sapiens, UniProt P01116, G12D)
Experiment: GDP-GTP exchange assay (bodipy-GDP/GppNHp, SOS1), KRAS G12D
Type: biochemical
Conditions: bodipy-loaded KRAS G12D 2.5 nM, 4 h pre-incubation; value for the most potent isomer quoted for certain compounds; read-out: G12D (KRAS G12D exchange assay IC50)
measured-quantity: IC50

Cc1nc2c(F)c(-c3cccc(Cl)c3Cl)c(CCC#N)cc2c2c1cc([C@H]1C[C@H](OC(C)c3nccs3)CN1C(=O)C1CC1)n2[C@H]1[C@H]2CN[C@@H]1C2 (stereo partly shown) [Example 363]	≤ 100 nM

Data request, read-out IC50, for COC(=O)N1C[C@@H](Oc2ccccn2)C[C@@H]1c1cc2c(-c3ccc(CN(C)C)c(F)c3F)nc3c(F)c(-c4cccc(Cl)c4Cl)c(CCC#N)cc3c2n1[C@H]1[C@H]2CN[C@@H]1C2 [Example 148]
≤ 100 nM

Data request, read-out IC50, for Cc1nc2c(F)c(-c3cccc(Cl)c3Cl)c(CCC#N)cc2c2c1cc([C@H]1C[C@H](O[C@H]3CCOC3)CN1C(=O)C1CC1)n2[C@H]1[C@H]2CN[C@@H]1C2 [Example 365]
≤ 100 nM

Data request, read-out IC50, for Cc1nc2c(F)c(-c3cccc(Cl)c3Cl)c(CCC#N)cc2c2c1cc([C@H]1C[C@H](OCC3(C#N)CCC3)CN1C(=O)C1CC1)n2[C@H]1[C@H]2CN[C@@H]1C2 [Example 339]
≤ 100 nM

Data request, read-out IC50, for Cc1nc2c(F)c(-c3cccc(Cl)c3Cl)c(CCC#N)cc2c2c1cc([C@H]1C[C@H](n3nnc(-c4ccncc4)n3)CN1C(=O)C1CC1)n2[C@H]1[C@H]2CN[C@@H]1C2 (atropisomer, axis not shown) [Example 437]
≤ 100 nM

Data request, read-out IC50, for Cc1nc2c(F)c(-c3cccc(Cl)c3Cl)c(CCC#N)cc2c2c1cc([C@H]1C[C@H](Oc3ccccc3)CN1C(=O)C1CC1)n2[C@H]1[C@H]2CN[C@@H]1C2 [Example 103]
≤ 100 nM

Data request, read-out IC50, for Cc1nc2c(F)c(-c3cccc(Cl)c3Cl)c(CCC#N)cc2c2c1cc([C@H]1C[C@H](n3cncn3)CN1C(=O)C1CC1)n2[C@H]1[C@H]2CN[C@@H]1C2 [Example 276]
≤ 100 nM

Data request, read-out IC50, for Cc1cccc(C)c1CO[C@H]1C[C@H](c2cc3c(C)nc4c(F)c(-c5cccc(Cl)c5Cl)c(CCC#N)cc4c3n2[C@H]2[C@H]3CN[C@@H]2C3)N(C(=O)C2CC2)C1 [Example 113]
≤ 100 nM

Data request, read-out IC50, for Cc1nc2c(F)c(-c3cccc(Cl)c3Cl)c(CCC#N)cc2c2c1cc([C@H]1C[C@H](OCC3CC(F)(F)C3)CN1C(=O)C1CC1)n2[C@H]1[C@H]2CN[C@@H]1C2 [Example 445]
≤ 100 nM

Data request, read-out IC50, for Cc1nc2c(F)c(-c3cccc(Cl)c3Cl)c(CCC#N)cc2c2c1cc([C@H]1C[C@H](Oc3cccc(C(C)C)c3)CN1C(=O)C1CC1)n2[C@H]1[C@H]2CN[C@@H]1C2 [Example 168]
100 to 1000 nM
